These entries and their values trace back to paper PMC4958397.

Test system: Escherichia coli ATCC 25922
Assay: Disk diffusion, zone of bacterial growth inhibition
Assay type: cell-based
Conditions: Escherichia coli, ATCC25922, 100 μg of compound, read-out: Zone of bacterial growth inhibition, E.c
Listing: zone of inhibition at 100 µg/disc of selected compounds
parameter_measured: zone of inhibition at 100 µg/disc

O=C(NNC(=S)NCCN1CCOCC1)c1ccccn1 [Compound 3] | 0 mm
O=C(NNC(=S)Nc1ccc(Cl)cc1Cl)c1ccccn1 [Compound 4] | 20 mm
O=C(NNC(=S)Nc1ccc(Cl)cc1Cl)c1cccnc1 [Compound 7] | 9 mm

====

Test system: Staphylococcus aureus ATCC 25923
Experiment: Disk diffusion, zone of bacterial growth inhibition
Format: cell-based
Conditions: Staphylococcus aureus, ATCC25923, 100 μg of compound, read-out: Zone of bacterial growth inhibition, S.a
parameter_measured: zone of inhibition at 100 µg/disc

O=C(NNC(=S)Nc1ccc(Cl)cc1Cl)c1ccccn1 | 22 mm
O=C(NNC(=S)NCCN1CCOCC1)c1ccccn1 | 0 mm
O=C(NNC(=S)Nc1ccccc1Cl)c1ccccn1 | 17 mm
O=C(NNC(=S)Nc1ccc(Cl)cc1Cl)c1ccncc1 | 16 mm
O=C(NNC(=S)Nc1ccc(Cl)cc1Cl)c1cccnc1 | 0 mm
[H]/N=C(\N/C(=N/[H])NCCCCCCNC(=N)NC(=N)Nc1ccc(Cl)cc1)Nc1ccc(Cl)cc1 [CLX, chlorhexidine digluconate, reference compound] | 23 mm
CSc1ccc(NC(=S)NNC(=O)c2ccncc2)cc1 | 0 mm
CSc1ccc(NC(=S)NNC(=O)c2ccccn2)cc1 | 10 mm
O=C(NNC(=S)Nc1ccccc1F)c1ccccn1 | 18 mm

====

System: Staphylococcus aureus ATCC 25923
Experiment: Disk diffusion, zone of bacterial growth inhibition
Type: cell-based
Details: Staphylococcus aureus, ATCC25923, 100 μg of compound, read-out: Zone of bacterial growth inhibition, S.a
parameter_measured: zone of inhibition at 100 µg/disc (mm)

O=C(NNC(=S)Nc1ccccc1F)c1ccncc1 [Compound 9] | 0
CCOc1ccc2nc3cc(N)ccc3c(N)c2c1 [Ethacridine lactate, ethacridine lactate, reference compound] | 10
CSc1ccc(NC(=S)NNC(=O)c2cccnc2)cc1 [Compound 6] | 10

====

Test: Cytotoxicity MTT assay
Format: cell-based
Conditions: human, BJ cells (normal human skin fibroblasts), read-out: CC50 (concentration required for a 50 % reduction of cell viability)
Reported values of CC50 at 24 h for individual entries
parameter_measured: CC50 at 24 h (µg/mL)

O=C(NNC(=S)Nc1ccc(Cl)cc1Cl)c1cccnc1 | 88.3
O=C(NNC(=S)Nc1ccc(Cl)cc1Cl)c1ccccn1 | 19.5
[H]/N=C(\N/C(=N/[H])NCCCCCCNC(=N)NC(=N)Nc1ccc(Cl)cc1)Nc1ccc(Cl)cc1 [CLX, chlorhexidine digluconate, reference compound] | 8.46
CSc1ccc(NC(=S)NNC(=O)c2cccnc2)cc1 | 917
CCOc1ccc2nc3cc(N)ccc3c(N)c2c1 [Ethacridine lactate, ethacridine lactate, reference compound] | 6.88

====

System: Streptococcus sanguinis PCM 2335
Experiment: Disk diffusion, zone of bacterial growth inhibition
Assay type: cell-based
Settings: Streptococcus sanguinis, PCM2335, 100 μg of compound, read-out: Zone of bacterial growth inhibition, S.s
Use Y when the recorded zone of inhibition at 100 µg/disc is no lower than 10 mm; use N when it is lower.

CSc1ccc(NC(=S)NNC(=O)c2ccncc2)cc1 [Compound 8] | N
[H]/N=C(\N/C(=N/[H])NCCCCCCNC(=N)NC(=N)Nc1ccc(Cl)cc1)Nc1ccc(Cl)cc1 [CLX, chlorhexidine digluconate, reference compound] | Y
CCOc1ccc2nc3cc(N)ccc3c(N)c2c1 [Ethacridine lactate, ethacridine lactate, reference compound] | Y
CSc1ccc(NC(=S)NNC(=O)c2cccnc2)cc1 [Compound 6] | Y
CSc1ccc(NC(=S)NNC(=O)c2ccccn2)cc1 [Compound 5] | Y
O=C(NNC(=S)Nc1ccc(Cl)cc1Cl)c1ccncc1 [Compound 10] | Y
O=C(NNC(=S)Nc1ccccc1Cl)c1ccccn1 [Compound 2] | N
O=C(NNC(=S)NCCN1CCOCC1)c1ccccn1 [Compound 3] | N
O=C(NNC(=S)Nc1ccccc1F)c1ccncc1 [Compound 9] | N
O=C(NNC(=S)Nc1ccc(Cl)cc1Cl)c1ccccn1 [Compound 4] | Y

====

Test system: Streptococcus mutans PCM 2502
Assay: Disk diffusion, zone of bacterial growth inhibition
Type: cell-based
Settings: Streptococcus mutans, PCM2502, 100 μg of compound, read-out: Zone of bacterial growth inhibition, S.m
Protocol: […] The preliminary antibacterial activity of the carbazide derivatives against human pathogenic Gram-positive, Gram-negative aerobic and microaerobic bacteria was evaluated by measuring the zones of inhibition in the disk diffusion method (Murray et al., [1995]). […] After 18 h of incubation at 37 °C (for aerobic strains) or 40 h at 35 °C (for microaerobic strains), zones of microbial growth produced around the tested substances were measured and recorded as the diameters of inhibition.
Below: a set of entries, each annotated with reported zone of inhibition at 100 µg/disc.
parameter_measured: zone of inhibition at 100 µg/disc (mm)

O=C(NNC(=S)Nc1ccccc1F)c1ccncc1 | 0
O=C(NNC(=S)Nc1ccc(Cl)cc1Cl)c1ccccn1 | 35
CSc1ccc(NC(=S)NNC(=O)c2ccccn2)cc1 | 0

====

Tested on: Escherichia coli ATCC 25922
Assay: Disk diffusion, zone of bacterial growth inhibition
Assay type: cell-based
Conditions: Escherichia coli, ATCC25922, 100 μg of compound, read-out: Zone of bacterial growth inhibition, E.c
zone of inhibition at 100 µg/disc listing for selected compounds.
parameter_measured: zone of inhibition at 100 µg/disc (mm)

CSc1ccc(NC(=S)NNC(=O)c2ccccn2)cc1 | 11
CSc1ccc(NC(=S)NNC(=O)c2cccnc2)cc1 | 9
O=C(NNC(=S)Nc1ccccc1F)c1ccccn1 | 22
CCOc1ccc2nc3cc(N)ccc3c(N)c2c1 [Ethacridine lactate, ethacridine lactate, reference compound] | 12
CSc1ccc(NC(=S)NNC(=O)c2ccncc2)cc1 | 0
O=C(NNC(=S)Nc1ccccc1F)c1ccncc1 | 0

====

Tested on: Staphylococcus aureus ATCC 25923
Experiment: Broth microdilution MIC
Assay type: cell-based
Conditions: Staphylococcus aureus, ATCC25923, NA means inactive, read-out: Minimum inhibitory concentration (MIC), S. aureus
// values below are reported MIC
parameter_measured: MIC (µg/mL)

CSc1ccc(NC(=S)NNC(=O)c2ccccn2)cc1 [Compound 5] | 250
[H]/N=C(\N/C(=N/[H])NCCCCCCNC(=N)NC(=N)Nc1ccc(Cl)cc1)Nc1ccc(Cl)cc1 [CLX, chlorhexidine digluconate, reference compound] | 0.488
O=C(NNC(=S)Nc1ccccc1F)c1ccccn1 [Compound 1] | 31.2
